System: Human immunodeficiency virus 1
Assay: microbe, parasite or virus in culture
Settings: Human immunodeficiency virus 1, SF162, HOS, 120 h
Description: Antiviral activity against CCR5-dependent HIV1 SF162 infected in human HOS cells assessed as reduction in virus infection measured after 5 days by luciferase reporter gene assay
Parameter measured: pIC50
Please report pIC50 as the negative decimal logarithm of the molar concentration, giving only the number.

Here's what some known entries look like.
Cc1ccc([C@H](CCN2[C@@H]3CC[C@H]2C[C@H](n2c(C)nnc2C(C)C)C3)NC(=O)C2CCC(F)(F)CC2)s1: 7.73
Cc1nnc(C(C)C)n1[C@@H]1C[C@H]2CC[C@@H](C1)N2CC[C@H](NC(=O)C1CCCC1)c1cccs1: 7.68
Cc1nnc(C(C)C)n1[C@@H]1C[C@H]2CC[C@@H](C1)N2CC[C@H](NC(=O)C1CCCCC1)c1cccs1: 7.36
Cc1nnc(C(C)C)n1[C@@H]1C[C@H]2CC[C@@H](C1)N2CC[C@H](NC(=O)C1CCC(F)(F)CC1)c1cccs1: 7.88

Shift focus to the following entry.
Consider the compound shown here: `Cc1nnc(C(C)C)n1[C@@H]1C[C@H]2CC[C@@H](C1)N2CC[C@H](NC(=O)C1CCC(F)(F)CC1)c1ccsc1` What is its recorded pIC50?
8.31
